Quick list: EC25 per entry.
- Test system: U373WT (wild-type established GBM line)
- Test Method Notes: Drug screening of U373WT tumor foci on OBSCs
- Type: cell-based, human
- Condition Summary: U373 WT on OBSCs; dose required to kill 25% of the tumor
Reply with just the number (in µM).

The compound `O=NN(CCCl)C(=O)NC1CCCCC1` , tested on U373WT (wild-type established GBM line), showed EC25 of 554

The compound `Nc1ncn([C@@H]2O[C@H](CO)[C@@H](O)[C@H]2O)c(=O)n1` , tested on U373WT (wild-type established GBM line), showed EC25 of 81.9

The compound `N.N.O=C([O-])C1(C(=O)[O-])CCC1.[Pt+2]` , tested on U373WT (wild-type established GBM line), showed EC25 of 103

---

- Tested on: U373KO (RAD18 knockout of U373WT via CRISPR)
- Test Method Notes: Drug screening of U373KO tumor foci on OBSCs
- Type: cell-based, human
- Condition Summary: U373 KO on OBSCs; slope through the EC50
Observation Type: Slope
I'd appreciate a reply containing only the number, no unit.

Worked examples follow.
Molecule | Target System | Observation Type | Observed Measurement
Nc1ccn([C@@H]2O[C@H](CO)[C@@H](O)C2(F)F)c(=O)n1 | U373KO (RAD18 knockout of U373WT via CRISPR) | Slope | -3.80E-01
COc1cc([C@@H]2c3cc4c(cc3[C@@H](O[C@@H]3O[C@@H]5CO[C@@H](C)O[C@H]5[C@H](O)[C@H]3O)[C@H]3COC(=O)[C@H]23)OCO4)cc(OC)c1O [Etoposide] | U373KO (RAD18 knockout of U373WT via CRISPR) | Slope | -3.13E-03
N.N.[Cl][Pt][Cl] [Cisplatin] | U373KO (RAD18 knockout of U373WT via CRISPR) | Slope | -4.53E-02
CC(=O)Nc1cccc(-n2c(=O)n(C3CC3)c(=O)c3c(Nc4ccc(I)cc4F)n(C)c(=O)c(C)c32)c1 | U373KO (RAD18 knockout of U373WT via CRISPR) | Slope | -3.88E-03

Entry Cn1nnc2c(C(N)=O)ncn2c1=O [Temozolomide] , Slope reported as -8.67E-04

Entry `O=NN(CCCl)C(=O)NC1CCCCC1` , Slope reported as -5.60E-04

Entry `Nc1ncn([C@@H]2O[C@H](CO)[C@@H](O)[C@H]2O)c(=O)n1` , Slope reported as -1.73E-03

Entry `N.N.O=C([O-])C1(C(=O)[O-])CCC1.[Pt+2]` , Slope reported as -5.29E-03

---

- System: MS21 (low-passage patient-derived GBM line)
- Test Method Notes: Drug screening of MS21 tumor foci on OBSCs
- Format: cell-based, human
- Condition Summary: Homo sapiens
- Experimental: Tumor cells (0.17 μL, 25,000 cells) were seeded onto OBSCs 2h after slicing, with one tumor seeded in the center of each hemisphere for a total of two tumor foci per OBSC. BSM was changed 24h after slicing. Fluorescence images were taken 0 h, 24 h, and 96 h post-seeding for normalization of tumor size. Bioluminescence readouts were also taken at 0 h, 24 h, and 96 h post seeding for assessment of cell viability. […]
Observation Type: EC90

Worked examples follow.
Compound | EC90
CC[C@]1(O)C[C@H]2CN(CCc3c([nH]c4ccccc34)[C@@](C(=O)OC)(c3cc4c(cc3OC)N(C=O)[C@H]3[C@@](O)(C(=O)OC)[C@H](OC(C)=O)[C@]5(CC)C=CCN6CC[C@]43[C@@H]65)C2)C1 [Vincristine] | > 10 µM
Nc1ccn([C@@H]2O[C@H](CO)[C@@H](O)C2(F)F)c(=O)n1 [Gemcitabine] | > 10 µM

Entry COc1cc([C@@H]2c3cc4c(cc3[C@@H](O[C@@H]3O[C@@H]5CO[C@@H](C)O[C@H]5[C@H](O)[C@H]3O)[C@H]3COC(=O)[C@H]23)OCO4)cc(OC)c1O [Etoposide] , EC90 reported as > 10 µM

Entry Nc1ncn([C@@H]2O[C@H](CO)[C@@H](O)[C@H]2O)c(=O)n1 [Azacitidine] , EC90 reported as > 10 µM

Entry O=NN(CCCl)C(=O)NC1CCCCC1 [Lomustine] , EC90 reported as 1990 µM

Entry CC(=O)Nc1cccc(-n2c(=O)n(C3CC3)c(=O)c3c(Nc4ccc(I)cc4F)n(C)c(=O)c(C)c32)c1 [Trametinib] , EC90 reported as > 10 µM
